Assay: Drug release assay from Fmoc-FF/S hydrogel into PBS release buffer, HPLC analysis
Format: physicochemical
Conditions: Fmoc-FF/S hydrogel
VALUE TYPE: release profile from the hydrogel compared with control PBS solution

INSERT INTO assay_data (compound, measured) VALUES
  ('CC(C)n1c(/C=C/[C@H](O)C[C@H](O)CC(=O)O)c(-c2ccc(F)cc2)c2ccccc21 (racemic)', 'slower'),
  ('CC(C)NCC(O)c1ccc(NS(C)(=O)=O)cc1 (stereo not shown)', 'slower'),
  ('CC[C@H](C)C(=O)O[C@H]1C[C@H](O)C=C2C=C[C@H](C)[C@H](CC[C@@H](O)C[C@@H](O)CC(=O)O)[C@H]21', 'slower');

Hello, the source for this data is patent US20190321291A1, in case you need it.
